- experimental.system: μ-receptor (Homo sapiens (Human))
- assay.details: Receptor binding, competitive displacement of [3H]DAMGO
- test.context: 0.25 nM [3H]DAMGO, CHO cell membrane protein, 60 min at 25° C.
Counter-ions that a name gives are not always drawn.
measured.attribute: Ki

In [3]: df
Out[3]:
                                   compound  endpoint_value
0  COC1(c2ccc(C(N)=O)s2)C2CCCC1CN(C1CCOCC1)C2 (stereo not shown) [Compound 71, hydrochloride]          > 5 nM
1  COC1(c2cccc(C(N)=O)c2)C2CCCC1CN(CC1CCC1)C2 (stereo not shown) [Compound 26, hydrochloride]          < 1 nM
2  COC1(c2ccc(C(N)=O)s2)C2CCCC1CN(C)C2.Cl (stereo not shown) [Compound 48, hydrochloride]          < 1 nM
3  COC1(c2cccc(C(N)=O)c2)C2CCCC1CN(CCC(F)(F)F)C2 (stereo not shown) [Compound 34, hydrochloride]          < 1 nM
